Tested on: Escherichia coli
testProtocol: Antibacterial activity against Escherichia coli ATCC 25922 after 18 to 24 hrs
Type: functional

molecule: CC1(N)CN(c2nc3c(cc2F)c(=O)c(C(=O)O)cn3[C@@H]2C[C@@H]2F)C/C1=N\OCc1ccccc1 (stereo not given in full)
targetOfAssay: Escherichia coli
censoringQualifier: =
MIC, µg/mL: 2

molecule: NC1CN(c2nc3c(cc2F)c(=O)c(C(=O)O)cn3[C@@H]2C[C@@H]2F)C/C1=N\OCc1ccccc1 (stereo not given in full)
targetOfAssay: Escherichia coli
censoringQualifier: =
MIC, µg/mL: 0.5

molecule: CCO/N=C1\CN(c2nc3c(cc2F)c(=O)c(C(=O)O)cn3[C@@H]2C[C@@H]2F)CC1(C)N (stereo not given in full)
targetOfAssay: Escherichia coli
censoringQualifier: =
MIC, µg/mL: 1

molecule: CO/N=C1\CN(c2nc3c(cc2F)c(=O)c(C(=O)O)cn3[C@@H]2C[C@@H]2F)CC1N (stereo not given in full)
targetOfAssay: Escherichia coli
censoringQualifier: =
MIC, µg/mL: 0.25

molecule: Cc1ccc(CO/N=C2\CN(c3nc4c(cc3F)c(=O)c(C(=O)O)cn4[C@@H]3C[C@@H]3F)CC2CN)cc1 (stereo not given in full)
targetOfAssay: Escherichia coli
censoringQualifier: <
MIC, µg/mL: 0.008

* * *

Tested on: Pseudomonas aeruginosa
testProtocol: Antibacterial activity against Pseudomonas aeruginosa 14-19 after 18 to 24 hrs
Format: functional
Reported values of MIC for individual entries

compound: CC1(CN)CN(c2nc3c(cc2F)c(=O)c(C(=O)O)cn3[C@@H]2C[C@@H]2F)C/C1=N\OCc1ccccc1 (some centres undefined)
MIC: 8 µg/mL
--
compound: NCC1CN(c2nc3c(cc2F)c(=O)c(C(=O)O)cn3[C@@H]2C[C@@H]2F)C/C1=N\OCc1ccc([N+](=O)[O-])cc1 (some centres undefined)
MIC: 16 µg/mL
--
compound: NCC1CN(c2nc3c(cc2F)c(=O)c(C(=O)O)cn3[C@@H]2C[C@@H]2F)C/C1=N\OCc1ccc2c(c1)OCO2 (some centres undefined)
MIC: 8 µg/mL
--
compound: COc1cccc(CO/N=C2\CN(c3nc4c(cc3F)c(=O)c(C(=O)O)cn4[C@@H]3C[C@@H]3F)CC2CN)c1OC (some centres undefined)
MIC: 16 µg/mL

* * *

Reported values of MIC for individual entries
System: Enterococcus faecalis
testProtocol: Antibacterial activity against Enterococcus faecalis 14-2 after 18 to 24 hrs
Format: functional

molecule: NCC1CN(c2nc3c(cc2F)c(=O)c(C(=O)O)cn3[C@@H]2C[C@@H]2F)C/C1=N\OCc1ccc2c(c1)OCO2 (stereo partly drawn)
MIC: < 8 ng/mL

molecule: Cc1ccc(CO/N=C2\CN(c3nc4c(cc3F)c(=O)c(C(=O)O)cn4[C@@H]3C[C@@H]3F)CC2CN)cc1 (stereo partly drawn)
MIC: < 8 ng/mL

molecule: COc1ccc(CO/N=C2\CN(c3nc4c(cc3F)c(=O)c(C(=O)O)cn4[C@@H]3C[C@@H]3F)CC2CN)cc1 (stereo partly drawn)
MIC: < 8 ng/mL

* * *

Tested on: Staphylococcus aureus
testProtocol: Antibacterial activity against methicillin-sensitive Staphylococcus aureus 14-3 after 18 to 24 hrs
Assay type: functional

molecule: COc1cccc(CO/N=C2\CN(c3nc4c(cc3F)c(=O)c(C(=O)O)cn4[C@@H]3C[C@@H]3F)CC2CN)c1OC (stereo partly drawn)
MIC: < 8 ng/mL
//
molecule: NCC1CN(c2nc3c(cc2F)c(=O)c(C(=O)O)cn3[C@@H]2C[C@@H]2F)C/C1=N\OCc1ccc(F)cc1 (stereo partly drawn)
MIC: < 8 ng/mL
//
molecule: COc1c(N2C[C@@H]3CCCN[C@@H]3C2)c(F)cc2c(=O)c(C(=O)O)cn(C3CC3)c12
MIC: < 8 ng/mL

* * *

System: Staphylococcus aureus
testProtocol: Antibacterial activity against methicillin-sensitive Staphylococcus aureus 14-1 after 18 to 24 hrs
Type: functional
Reported values of MIC for individual entries
measurementName: MIC (µg/mL)

compound: NCC1CN(c2nc3c(cc2F)c(=O)c(C(=O)O)cn3[C@@H]2C[C@@H]2F)C/C1=N\OCc1ccc([N+](=O)[O-])cc1 (some centres undefined)
targetOfAssay: Staphylococcus aureus
unitTag: µg/mL
numericResult: 4
--
compound: NC1CN(c2nc3c(cc2F)c(=O)c(C(=O)O)cn3[C@@H]2C[C@@H]2F)C/C1=N\OCc1ccccc1 (some centres undefined)
targetOfAssay: Staphylococcus aureus
unitTag: µg/mL
numericResult: 16
--
compound: NCC1CN(c2nc3c(cc2F)c(=O)c(C(=O)O)cn3[C@@H]2C[C@@H]2F)C/C1=N\OCc1ccc(Br)cc1 (some centres undefined)
targetOfAssay: Staphylococcus aureus
unitTag: µg/mL
numericResult: 2
--
compound: C[C@H]1COc2c(N3CCN(C)CC3)c(F)cc3c(=O)c(C(=O)O)cn1c23.C[C@H]1COc2c(N3CCN(C)CC3)c(F)cc3c(=O)c(C(=O)O)cn1c23.O [LEVOFLOXACIN]
targetOfAssay: Staphylococcus aureus
unitTag: µg/mL
numericResult: 8
--
compound: CCO/N=C1\CN(c2nc3c(cc2F)c(=O)c(C(=O)O)cn3[C@@H]2C[C@@H]2F)CC1(C)CN (some centres undefined)
targetOfAssay: Staphylococcus aureus
unitTag: µg/mL
numericResult: 2
--
compound: NCC1CN(c2nc3c(cc2F)c(=O)c(C(=O)O)cn3[C@@H]2C[C@@H]2F)C/C1=N\OCc1ccc2c(c1)OCO2 (some centres undefined)
targetOfAssay: Staphylococcus aureus
unitTag: µg/mL
numericResult: 4
--
compound: COc1c(N2C[C@@H]3CCCN[C@@H]3C2)c(F)cc2c(=O)c(C(=O)O)cn(C3CC3)c12 [MOXIFLOXACIN]
targetOfAssay: Staphylococcus aureus
unitTag: µg/mL
numericResult: 4
--
compound: NCC1CN(c2nc3c(cc2F)c(=O)c(C(=O)O)cn3[C@@H]2C[C@@H]2F)C/C1=N\OCc1ccc(OC(F)(F)F)cc1 (some centres undefined)
targetOfAssay: Staphylococcus aureus
unitTag: µg/mL
numericResult: 4
--
compound: COc1cccc(CO/N=C2\CN(c3nc4c(cc3F)c(=O)c(C(=O)O)cn4[C@@H]3C[C@@H]3F)CC2CN)c1OC (some centres undefined)
targetOfAssay: Staphylococcus aureus
unitTag: µg/mL
numericResult: 4
